Sourced from the supplement of paper PMC9233669

System: biotinyl-Trp-oxazolone
Test: self-aminoacylation, catalytic enhancement (BWO) (fold over background); higher = more active; k-Seq, kA / k0A0; sequences stand for … in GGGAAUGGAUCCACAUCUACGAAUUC…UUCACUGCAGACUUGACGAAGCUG
Variants at the floor of the assay were thinned out.
result.type: self-aminoacylation

{"seq": "CCACACUUCAAGCAUUCGAUC [Fam1B.1 aminoacylation ribozyme variant]", "self-aminoacylation": 0.748}
{"seq": "CUACUUCAAACAAUCGGUCAC [Fam1A.1 aminoacylation ribozyme variant]", "self-aminoacylation": 8.51}
{"seq": "AUCACCCUGGUCAUCGAGUGG [Fam2.1 aminoacylation ribozyme variant]", "self-aminoacylation": 10.2}

Identify measured self-aminoacylation obtained with biotinyl-Trp-oxazolone for AUCACCCUGCUCAUCGAGUGA [Fam2.1 aminoacylation ribozyme variant] . 3.44

Identify measured self-aminoacylation obtained with biotinyl-Trp-oxazolone for CCACACUUCAAGCUAUUGGUC [Fam1B.1 aminoacylation ribozyme variant] . 0.661

Identify measured self-aminoacylation obtained with biotinyl-Trp-oxazolone for AUUACCCUGGUGAUAGAGUGA [Fam2.1 aminoacylation ribozyme variant] . 8.54

Identify measured self-aminoacylation obtained with biotinyl-Trp-oxazolone for AUUCACCGAAGUCAUCGGGUG [Fam2.2 aminoacylation ribozyme variant] . 15.1

Identify measured self-aminoacylation obtained with biotinyl-Trp-oxazolone for CCAAACUUCAAGCAUUCGGUC [Fam1B.1 aminoacylation ribozyme variant] . 1.75
